Exercise: state measured IC50 for each of the compounds provided.
assay_overview: Antioxidant activity assessed as DPPH radical scavenging activity incubated for 5 mins by microplate spectrophotometry
Type: physicochemical
Answer in µM, number only, no unit symbol.

Q. Need IC50, item Oc1cc(Br)c(-c2cc3ccccc3o2)cc1O
A. 33.8

Q. # IC50 lookup, item Oc1cc(-c2cc3cc(Br)cc(O)c3o2)cc(O)c1O
A. 14.6

Q. Quick check: IC50 of Oc1ccc(-c2cc3c(Br)ccc(O)c3o2)cc1O ?
A. 18.4

Q. Requested read-out: IC50. Entry: Oc1ccc(-c2cc3cc(Br)cc(O)c3o2)cc1O
A. 28.6

Q. If you can, please state the reported IC50 value of Oc1ccc(/C=C/c2cc(O)cc(O)c2)cc1 [RESVERATROL] .
A. 63.5

Q. Look up IC50: Oc1cc(Br)c(-c2cc3cccc(O)c3o2)cc1O
A. 20.6

Q. Query: IC50; subject: Oc1cc(-c2cc3ccccc3o2)c(Br)c(O)c1O
A. 18

Q. Endpoint output: IC50 of CCOC(=O)/C=C/c1cc(O)c2oc(-c3ccc(O)c(O)c3)cc2c1 . Value?
A. 25.4

Q. Name the reported IC50 value associated with the compound CCOC(=O)/C=C/c1cc(O)c(O)cc1-c1cc2cccc(O)c2o1
A. 26.2

====

For each of the compounds below, state its IC50.
assay_overview: Inhibition of Saccharomyces cerevisiae alpha-glucosidase
# output: bare number, implied unit µM

Q. I'd like to know its IC50. The compound in question is O=c1c(O)c(-c2ccc(O)c(O)c2)oc2cc(O)cc(O)c12
A. 5.3

Q. // returns reported IC50 for input Oc1ccc(/C=C/c2cc(O)cc(O)c2)cc1
A. 27.9

====

assay_overview: Inhibition of Saccharomyces cerevisiae alpha-glucosidase using 4-NPGP substrate assessed as reduction in 4-nitrophenol release pre-incubated for 10 mins before substrate addition by microplate reader based assay
Consider the following molecules; for each one, report its pIC50.
Units for pIC50: none; it is -log10 of a concentration expressed in mol/L.

Q. # get_value(readout='pIC50', item= Oc1cc(-c2cc3cc(Br)cc(O)c3o2)cc(O)c1O )
A. 5.52

Q. # lookup: pIC50 of Oc1ccc(-c2cc3cccc(O)c3o2)cc1O
A. 5.72

Q. // lookup pIC50 for Oc1cc(Br)c(-c2cc3cccc(O)c3o2)cc1O
A. 5.15

Q. Reported pIC50 for Oc1ccc(/C=C/c2cc(O)cc(O)c2)cc1 : what is it?
A. 4.51

Q. If you can, please state the reported pIC50 value of CCOC(=O)/C=C/c1cc(O)c2oc(-c3cc(O)c(O)c(O)c3)cc2c1 .
A. 5.70

Q. Look up pIC50: CCOC(=O)/C=C/c1cc(O)c2oc(-c3ccc(O)c(O)c3)cc2c1
A. 4.62

Q. Any idea what pIC50 was measured for Oc1cc(-c2cc3cccc(O)c3o2)cc(O)c1O ?
A. 5.04

Q. Quick one: pIC50 of Oc1ccc(-c2cc3cc(Br)cc(O)c3o2)cc1O ?
A. 5.12

Q. Dear colleague, I am looking for the recorded pIC50 of the following molecule: Oc1cc(Br)c(-c2cc3c(Br)ccc(O)c3o2)cc1O
A. 5.19

Q. Would you kindly share the measured pIC50 for Oc1ccc(-c2cc3c(Br)ccc(O)c3o2)cc1O ?
A. 5.19

Data provenance: ChEMBL document CHEMBL3407387
